Please go through the items and note down their max response.
Assay: Cycloheximide Counterscreen for Small Molecule Inhibitors of Shiga Toxin; note: read at 38.3 µM for the half of the compounds with a filed dose; 0% is about no effect
Conditions: cell reporter, cycloheximide protein synthesis inhibition counterscreen; active compounds read high
Among all 300,000 compounds or so, about 37,000 (12%) were called active. Only a selection was taken, and actives are over-represented in it overall.
Use % as the unit, but write only the number.

Given the compound `Fc1ccc2[nH]c3c(N4CCSCC4)ncnc3c2c1` , what is its reported max response?
5.04

Given the compound C=CCc1ccccc1OCC(O)CN1CCN(CCO)CC1 (stereo unspecified) , what is its reported max response?
-1.25

Given the compound `CCc1ccc2oc(-c3ccc(N)cc3)nc2c1` , what is its reported max response?
38.2

Given the compound `O=C(Nc1cccc2ccccc12)c1onc2c1CCCC2` , what is its reported max response?
43.2

Given the compound `COc1ccc(NC(=O)CCCNC(=O)Cn2cnc3sc4c(c3c2=O)CCCC4)cc1OC` , what is its reported max response?
-1.82

Given the compound `N/C(=N\OC(=O)N1c2ccccc2Sc2ccccc21)c1ccc(Br)cc1` , what is its reported max response?
-1.54

Given the compound `CC(C)(C)OC(=O)CNC(=O)c1[nH]cnc1C(=O)N[C@@H](Cc1ccccc1)C(=O)OCc1ccccc1` , what is its reported max response?
-1.14

Given the compound CCc1nn(CCCC(=O)NC(C)c2ccccc2)c(=O)c2cc3occc3n12 (stereo unspecified) , what is its reported max response?
10.1

Given the compound `O=C(COC(=O)c1ccc(N2CCCC2=O)cc1)c1ccc(OC(F)F)cc1` , what is its reported max response?
2.45

Given the compound `CC(=O)c1ccc(NC(=O)Nc2ccc([N+](=O)[O-])cc2C)cc1` , what is its reported max response?
-0.717

Given the compound CCN1CCCC1CNC(=O)c1cc2cc(OC)c(OC)cc2[nH]1 (stereo unspecified) , what is its reported max response?
-3.29

Given the compound `O=C(COC(=O)c1ccccn1)Nc1cccc2ccccc12` , what is its reported max response?
-1.89

Given the compound `CC(C)OCCCNc1ncnc2c1[nH]c1ccc(F)cc12` , what is its reported max response?
39

Given the compound `N/C(=N\OC(=O)c1ccc2c(c1)OCO2)c1ccc(Br)cc1` , what is its reported max response?
32.7

Given the compound `O=C(O)CSCC(=O)Nc1cccc(C(F)(F)F)c1` , what is its reported max response?
-6.91

Given the compound `O=C(O)c1ccccc1-c1ccccc1C(=O)Nc1cccc2ccccc12` , what is its reported max response?
-3.02

Just for reference, PubChem BioAssay AID2314 is where these values come from.
